# assayTarget: dopamine transporter (DAT) (Homo sapiens)
# Construct: expressed in transfected cells; host or cells: CHO (uptake)
# Sequence (Q01959 whole entry, species assumed): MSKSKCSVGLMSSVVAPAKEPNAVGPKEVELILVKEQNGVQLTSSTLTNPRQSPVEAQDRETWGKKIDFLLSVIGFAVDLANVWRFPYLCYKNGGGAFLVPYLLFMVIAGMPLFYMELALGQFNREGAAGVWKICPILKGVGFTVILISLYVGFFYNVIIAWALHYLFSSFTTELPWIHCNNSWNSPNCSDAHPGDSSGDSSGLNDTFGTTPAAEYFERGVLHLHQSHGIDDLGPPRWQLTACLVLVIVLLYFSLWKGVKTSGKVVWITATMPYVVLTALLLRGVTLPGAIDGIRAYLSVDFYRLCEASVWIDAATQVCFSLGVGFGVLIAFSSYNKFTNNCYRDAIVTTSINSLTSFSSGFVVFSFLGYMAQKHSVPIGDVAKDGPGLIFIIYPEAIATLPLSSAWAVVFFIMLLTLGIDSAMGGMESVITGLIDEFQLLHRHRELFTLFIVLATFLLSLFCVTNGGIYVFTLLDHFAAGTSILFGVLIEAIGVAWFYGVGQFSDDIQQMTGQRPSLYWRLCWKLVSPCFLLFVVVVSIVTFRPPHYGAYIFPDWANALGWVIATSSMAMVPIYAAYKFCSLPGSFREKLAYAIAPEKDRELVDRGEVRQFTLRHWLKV
# assayMethodText: Fluorescent substrate uptake inhibition, DAT
# Type: cell-based
# conditionDescription: 10 μM, CHO cells expressing DAT
measuredEndpoint: inhibition at 10 µM (%)
Expressed in %, but write only the number.

[[record]]
molecule = "CNC1(c2ccc(F)cc2)CCCCC1=O (racemic)"
assaytarget = "dopamine transporter (DAT) (Homo sapiens)"
measuredendpoint = "inhibition at 10 µM"
datavalue = 21.4

[[record]]
molecule = "O=C1CCCC[C@]1(NCCO)c1ccccc1 [Compound 30S]"
assaytarget = "dopamine transporter (DAT) (Homo sapiens)"
measuredendpoint = "inhibition at 10 µM"
datavalue = 18.7

[[record]]
molecule = "O=C1CCCC[C@@]1(c1ccccc1)N1CCCCC1 [Compound 26S]"
assaytarget = "dopamine transporter (DAT) (Homo sapiens)"
measuredendpoint = "inhibition at 10 µM"
datavalue = 33.7

[[record]]
molecule = "CN[C@]1(c2ccccc2C)CCCCC1=O [Compound 38S]"
assaytarget = "dopamine transporter (DAT) (Homo sapiens)"
measuredendpoint = "inhibition at 10 µM"
datavalue = 8.3


Asked: State its inhibition at 10 µM for this molecule: [2H]C([2H])([2H])N[C@]1(c2ccccc2)CCCCC1=O [Compound 88S]
Given back: 18.6

Asked: State its inhibition at 10 µM for this molecule: CNC1(c2cccc(C)c2)CCCCC1=O (racemic)
Given back: 8.5

Asked: State its inhibition at 10 µM for this molecule: O=C1CCCC[C@]1(c1ccccc1)N1CCCCC1 [Compound 26R]
Given back: 58
